// data source = PubChem BioAssay (NCI)

# Test system: SF-295 CNS
# Protocol Summary: NCI tumour cell line growth inhibition, 48 h
*1 amine or outer side, *2 acyl side, *3 side chain or, on linkers, in order; H or OH if unused. Where a SMILES comes first, the peptide text is derived from it. Bridges are numbered along the chain shown (N, C = ends). Roman numbers before positions name the chains, in order. [ ]: non-standard residue; d: D form. Actinocin(9to1) = Cc1c2oc3c(C)ccc(C(=O)[*:1])c3nc-2c(C(=O)[*:2])c(N)c1=O; NMeV = CN[CH](C(=O)O)C(C)C; Sar = CNCC(=O)O

[
  {
    "Compound": "COc1ccc(C=C2C(=O)OC(C)(C)OC2=O)cc1OC",
    "Tgt": "SF-295 CNS",
    "TGI": "> 100 µM"
  },
  {
    "Compound": "CC(=O)Nc1ccc(C(=O)N2N=C(C)/C(=C/c3ccccc3O)C2=O)cc1",
    "Tgt": "SF-295 CNS",
    "TGI": "> 100 µM"
  },
  {
    "Compound": "O=C1/C(=C/c2cccs2)N=C(c2ccccc2)N1c1nc2ccccc2s1",
    "Tgt": "SF-295 CNS",
    "TGI": "> 100 µM"
  },
  {
    "Compound": "O=C(O)c1ccc2c(c1)Cc1cc([N+](=O)[O-])ccc1-2",
    "Tgt": "SF-295 CNS",
    "TGI": "> 100 µM"
  },
  {
    "Compound": "C/C(=C\\COP(=O)(O)OP(=O)(O)O)CC/C=C(\\C)CNc1ccccc1",
    "Tgt": "SF-295 CNS",
    "TGI": "> 50 µM"
  },
  {
    "Compound": "Cc1c2oc3c(C)ccc(C(=O)NC4C(=O)NC(Cc5ccc(O)cc5)C(=O)N5CCCC5C(=O)N(C)CC(=O)N(C)C(C(C)C)C(=O)OC4C)c3nc-2c(C(=O)NC2C(=O)NC(Cc3ccc(O)cc3)C(=O)N3CCCC3C(=O)N(C)CC(=O)N(C)C(C(C)C)C(=O)OC2C)c(N)c1=O (stereo not drawn) (I: TYP[Sar][NMeV] / II: TYP[Sar][NMeV]; ester I:1-I:C, II:1-II:C; linker I:N-II:N via Actinocin(9to1); configuration not given here)",
    "Tgt": "SF-295 CNS",
    "TGI": "> 54.6 µM"
  },
  {
    "Compound": "CN(c1ccc(Cl)cc1)S(=O)(=O)c1ccccc1",
    "Tgt": "SF-295 CNS",
    "TGI": "> 100 µM"
  },
  {
    "Compound": "C[C@]12CCC3[C@@H](C[C@@H]4SC(Nc5ccccc5)=N[C@@]45CC(=O)CC[C@]35C)[C@@H]1CCC2=O (stereo partly drawn)",
    "Tgt": "SF-295 CNS",
    "TGI": "> 100 µM"
  },
  {
    "Compound": "C=C1[C@@H](C)[C@H]2[C@H](Cc3ccccc3)NC(=O)[C@]23OC(=O)/C=C/[C@H](O)CCC[C@@H](C)C/C=C/[C@H]3[C@@H]1O",
    "Tgt": "SF-295 CNS",
    "TGI": "53.5 µM"
  },
  {
    "Compound": "CCC(C)C(NC(=O)C1CCCN1)C(=O)NC(C(=O)NCC(=O)NC(CC(N)=O)C(=O)NC(CC(C)C)C(=O)NC(CC(C)C)C(=O)NC(CCCCN)C(N)=O)C(C)C (stereo not drawn) (H-PIVGNLLK-NH2; configuration not given here)",
    "Tgt": "SF-295 CNS",
    "TGI": "> 75 µM"
  },
  {
    "Compound": "Cn1cnc(/C=C/C#N)c1",
    "Tgt": "SF-295 CNS",
    "TGI": "> 100 µM"
  },
  {
    "Compound": "CCCCNC(=S)Nc1nc(C(=O)NNC(=S)NCc2ccccc2)cs1",
    "Tgt": "SF-295 CNS",
    "TGI": "> 100 µM"
  },
  {
    "Compound": "CC(=O)CCCCCCCCCCCC[C@@H]1CC[C@H](C)[C@H](O)N1",
    "Tgt": "SF-295 CNS",
    "TGI": "> 100 µM"
  },
  {
    "Compound": "[Cl][Bi]([O]c1ccccn1)[O]c1ccccn1",
    "Tgt": "SF-295 CNS",
    "TGI": "> 100 µM"
  },
  {
    "Compound": "CC(C)NCCNC(=O)c1ccccc1Nc1c(Cl)cccc1Cl",
    "Tgt": "SF-295 CNS",
    "TGI": "28.5 µM"
  },
  {
    "Compound": "O=c1cc(C(F)(F)F)c2cc3c(cc2o1)NCCC3",
    "Tgt": "SF-295 CNS",
    "TGI": "> 100 µM"
  },
  {
    "Compound": "O=Cc1c(-c2cc(O)ccc2O)nc2sccn12",
    "Tgt": "SF-295 CNS",
    "TGI": "74.6 µM"
  },
  {
    "Compound": "CC12CCC3C(CC=C4CC(O)CCC43C)C1C/C(=C\\N1CCCC1)C2=O (stereo not drawn)",
    "Tgt": "SF-295 CNS",
    "TGI": "> 100 µM"
  },
  {
    "Compound": "Cc1ccc(C(=O)NN=C(/N=N/c2cccc(C)c2)c2ccc(N(C)C)cc2)cc1",
    "Tgt": "SF-295 CNS",
    "TGI": "> 100 µM"
  },
  {
    "Compound": "CC[C@]1(O)CC2CN(CCc3c([nH]c4ccccc34)[C@@](C(=O)OC)(c3cc4c(cc3OC)N(C)[C@H]3[C@@](O)(C(=O)OC)[C@H](OC(C)=O)[C@]5(CC)C=CCN6CC[C@]43[C@@H]65)C2)C1 (stereo partly drawn)",
    "Tgt": "SF-295 CNS",
    "TGI": "6.03 µM"
  },
  {
    "Compound": "Cn1c(=O)[nH]n(-c2ccc3ccccc3c2)c1=O",
    "Tgt": "SF-295 CNS",
    "TGI": "> 100 µM"
  },
  {
    "Compound": "[N-]=[N+]=NC(c1cn(C2CC(O)C(CO)O2)c(=O)[nH]c1=O)C(Br)I (stereo not drawn)",
    "Tgt": "SF-295 CNS",
    "TGI": "> 100 µM"
  },
  {
    "Compound": "C=C1C(=O)O[C@H]2[C@H]1CC/C(COC(=O)NCc1cc3ccccc3[nH]1)=C\\CC[C@@]1(C)O[C@@H]21",
    "Tgt": "SF-295 CNS",
    "TGI": "20.9 µM"
  },
  {
    "Compound": "O=c1cnc2cc3ccccc3cc2[nH]1",
    "Tgt": "SF-295 CNS",
    "TGI": "> 100 µM"
  },
  {
    "Compound": "CCCCN(CCCC)C1=Nc2ccccc2-n2c(nnc2C(=O)OCC)C1",
    "Tgt": "SF-295 CNS",
    "TGI": "> 100 µM"
  },
  {
    "Compound": "CC(C)C(=O)/C=C/c1ccccc1",
    "Tgt": "SF-295 CNS",
    "TGI": "> 100 µM"
  },
  {
    "Compound": "COc1ccc(/C=N/N=C(\\N)NO)cc1OC",
    "Tgt": "SF-295 CNS",
    "TGI": "> 100 µM"
  },
  {
    "Compound": "CC1=C([Se]CC(OC(=O)CC[Se]c2ccccc2)C(=O)NCCCCCC(=O)OCc2ccccc2)C(=O)c2ccccc2C1=O (stereo not drawn)",
    "Tgt": "SF-295 CNS",
    "TGI": "8.46 µM"
  }
]
